Target: Luciferin 4-monooxygenase (Photinus pyralis) (UniProt P08659)
Sequence (P08659 whole entry, looked up): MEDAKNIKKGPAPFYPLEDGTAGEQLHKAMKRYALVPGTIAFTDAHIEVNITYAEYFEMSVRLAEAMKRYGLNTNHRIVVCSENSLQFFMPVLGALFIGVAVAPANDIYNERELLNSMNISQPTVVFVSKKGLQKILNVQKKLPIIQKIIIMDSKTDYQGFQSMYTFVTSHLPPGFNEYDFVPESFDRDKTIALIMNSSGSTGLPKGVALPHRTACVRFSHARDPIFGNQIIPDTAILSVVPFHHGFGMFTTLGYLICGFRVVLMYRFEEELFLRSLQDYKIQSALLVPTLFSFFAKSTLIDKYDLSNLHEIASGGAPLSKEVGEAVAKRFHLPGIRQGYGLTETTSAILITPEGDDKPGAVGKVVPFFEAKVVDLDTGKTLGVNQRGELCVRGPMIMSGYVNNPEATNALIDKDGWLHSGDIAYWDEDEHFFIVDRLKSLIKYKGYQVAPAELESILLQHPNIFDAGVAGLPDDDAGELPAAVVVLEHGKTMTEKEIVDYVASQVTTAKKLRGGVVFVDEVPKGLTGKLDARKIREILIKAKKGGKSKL
Experiment: qHTS profiling assay for firefly luciferase inhibitor/activator using purifed enzyme and Km concentrations of substrates (counterscreen for miR-21 project); note: nearly all actives have a fitted effect of over 55% in size
Conditions: purified FLuc, luminescence inhibition; series mostly up to 57.5 µM
Screen size: about 360,000 compounds; about 25,000 (6.9%) were called active. Not shown: some 9% with an inconclusive outcome. Calls come from the whole dose curve; as a rule, active = well fitted inhibition curve with a large enough effect; inconclusive = small, poorly fitted or top-dose-only effect; inactive = flat fitted curve, though single readings scatter. For the sample, actives were picked, then their nearest neighbours and some compounds at random.
The reply should name one outcome from active, inactive

O=C(/C=C/c1ccc(Cl)cc1)Nc1ccc(Br)cn1 ... inactive
Cc1ccc(NC(=O)c2ccccn2)cc1S(=O)(=O)N1CCOCC1 ... inactive
CCc1nc2onc(C)c2c(=O)n1CC(=O)O ... inactive
Cc1cccc(-c2noc(CCC(=O)NC3CCCC3)n2)c1 ... inactive

Problem: State the result this test recorded for Cc1cc(-n2nc(C)cc2C)n2ncc(-c3ccccc3)c2n1 .
Solution: inactive

###

Molecular target: Luciferin 4-monooxygenase (Photinus pyralis) (UniProt P08659)
Assay: qHTS profiling assay for firefly luciferase inhibitor/activator using purifed enzyme and Km concentrations of substrates (counterscreen for miR-21 project); note: nearly all actives have a fitted effect of over 55% in size; note: potency is the fitted concentration of half-maximal effect
Settings: purified FLuc, luminescence inhibition; series mostly up to 57.5 µM
In all, about 360,000 compounds went through this assay and about 25,000 (6.9%) were called active. Inconclusive results (about 9%) are left out. Only a selection was taken, and actives are over-represented in it overall.
Measured attribute: Potency

Reference set (6 entries):
COc1ccccc1CNCc1ccc(C(=O)O)s1 ... inactive
COc1cc(OC)cc(C(=O)OCC(=O)Nc2sccc2C(N)=O)c1 ... 15.1 µM (active)
COc1cc(SC)ccc1C(=O)N(Cc1ccccc1)c1ccccc1 ... inactive
CCOc1ccccc1NC(=O)C1CCCN(S(=O)(=O)c2cn(C)cn2)C1 (centres undefined) ... inactive
COc1cccc(OCc2cc(C(=O)N3CCN(C(=O)c4ccco4)CC3)no2)c1 ... 12 µM (active)
O=C(Nc1ccncc1)c1cc2ccccc2o1 ... 12 µM (active)

Problem: Enter recorded Potency with Luciferin 4-monooxygenase (Photinus pyralis) (UniProt P08659) for COC(=O)c1ccccc1NS(=O)(=O)c1ccc2[nH]c(=O)[nH]c2c1 here.
Solution: inactive

Problem: Enter recorded Potency with Luciferin 4-monooxygenase (Photinus pyralis) (UniProt P08659) for c1ccc2c(CSCc3nc4ccccc4[nH]3)cccc2c1 here.
Solution: 10.7 µM (active)

###

Target: Luciferin 4-monooxygenase (Photinus pyralis) (UniProt P08659)
Assay: qHTS profiling assay for firefly luciferase inhibitor/activator using purifed enzyme and Km concentrations of substrates (counterscreen for miR-21 project); note: nearly all actives have a fitted effect of over 55% in size
Settings: purified FLuc, luminescence inhibition; series mostly up to 57.5 µM
Among all 360,000 compounds or so, about 25,000 (6.9%) were called active. Another 9% or so got no clear call; they are omitted. The call rests on the fitted dose curve; in most records, active means well fitted inhibition curve with a large enough effect; inconclusive means small, poorly fitted or top-dose-only effect; inactive means flat fitted curve, though single readings scatter. Many of the other results were omitted from the sample, so actives are more common in it than they were.
The reply should name one outcome from y = active, n = inactive

Worked set:
COc1cc(/C=N\NC(=O)c2nonc2N)c(OC)cc1Br ... n
CN(C)c1nc(Nc2ccc(Cl)c(Cl)c2)nc(N(C)C)n1 ... n
CC(OC(=O)c1ccccc1NCCO)C(=O)Nc1ccnn1C(C)C (stereo unspecified) ... n

Problem: State the result this test recorded for COc1cc2nc(Cl)nc(NCCO)c2cc1OC .
Solution: n

Problem: State the result this test recorded for Cc1c(NS(=O)(=O)c2ccc(Cl)cc2)c(=O)n(-c2ccccc2)n1C .
Solution: n

Problem: State the result this test recorded for Cc1ccc(NC(=O)c2cccc(S(=O)(=O)N3CCCc4ccccc43)c2)nc1 .
Solution: n

Problem: State the result this test recorded for OCCCN1c2ccccc2Nc2nnc(-c3ccccc3)cc21 .
Solution: y

Problem: State the result this test recorded for N=c1c2c(-c3ccccc3)c(-c3ccccc3)n(Cc3ccccc3)c2ncn1CCCO .
Solution: n
